# Tested on: fibroblasts
# measurement-description: Proliferation of fibroblasts (general cell toxicity check)
# Format: cell-based
# condition-info: read-out: concentration giving 50% growth inhibition, fibroblasts
pIC50: −log10 of the molar value.
readout: pIC50

CCCc1cc2c(OCC(=O)NCCN(C)C)c(c1)Cc1cc(CCC)cc(c1OCC(=O)NCCN(C)C)Cc1cc(CCC)cc(c1OCC(=O)NCCN(C)C)Cc1cc(CCC)cc(c1OCC(=O)NCCN(C)C)C2 [Compound 11a] yielded pIC50 of ~4.70

---

# Tested on: B16F10 tumor cells
# measurement-description: Proliferation of B16F10 tumor cells
# Type: cell-based, murine
# condition-info: read-out: IC50 against B16F10 tumor cells
readout: IC50 (µM)
The figure you give is taken to be in µM; do not add the unit.

CCCc1cc2c(OCC(=O)NCCN(C)C)c(c1)Cc1cc(CCC)cc(c1OCC(=O)NCCN(C)C)Cc1cc(CCC)cc(c1OCC(=O)NCCN(C)C)Cc1cc(CCC)cc(c1OCC(=O)NCCN(C)C)C2 [Compound 11a] yielded IC50 of 15

---

# Tested on: LPS from K. pneumoniae
# measurement-description: LPS neutralization assay (Limulus amoebocyte lysate, QCL-1000)
# Format: biochemical, Klebsiella pneumoniae
# condition-info: Table 2; read-out: IC50 values (μM) for LPS binding, Klebsiella
# Description: The ability of compounds to neutralize endotoxin was detected in vitro by using the chromogenic QCL-1000 kit from BioWhittaker, Inc. (Walkersville, Md.), and as described in their protocol. This Limulus amoebocyte lysate (LAL) assay is quantitative for Gram negative bacterial endotoxin (lipopolysaccharide, LPS). […]
Below: a set of entries, each annotated with reported log10 of IC50.
# values: log10(IC50), units µM

Here is how some compounds turned out for log10 of IC50.
INSERT INTO measurements (smiles_structure, endpoint_result) VALUES
  ('CN(C)CCNC(=O)COc1c2cccc1Cc1cccc(c1OCC(=O)NCCN(C)C)Cc1cccc(c1OCC(=O)NCCN(C)C)Cc1cccc(c1OCC(=O)NCCN(C)C)C2', 0.18),
  ('CC(C)(C)c1cc2c(OCCCCN)c(c1)Cc1cc(C(C)(C)C)cc(c1OCCCCNC(=N)N)Cc1cc(C(C)(C)C)cc(c1OCCCCNC(=N)N)Cc1cc(C(C)(C)C)cc(c1OCCCCNC(=N)N)C2.O=C(O)C(F)(F)F', -0.30);

Observed log10 of IC50, LPS from K. pneumoniae, "CC(C)(C)c1cc2c(OCC(=O)NCCN)c(c1)Cc1cc(C(C)(C)C)cc(c1OCC(=O)NCCN)Cc1cc(C(C)(C)C)cc(c1OCC(=O)NCCN)Cc1cc(C(C)(C)C)cc(c1OCC(=O)NCCN)C2" : -0.40

Observed log10 of IC50, LPS from K. pneumoniae, "CC(C)CCOc1c2cccc1Cc1cc(CCCOS(=O)(=O)O)cc(c1O)Cc1cccc(c1OCCC(C)C)Cc1cc(CCCOS(=O)(=O)O)cc(c1O)C2" : 0.32

Observed log10 of IC50, LPS from K. pneumoniae, "CN(C)CCNC(=O)COc1c2cc(C(C)(C)C)cc1Cc1cc(C(C)(C)C)cc(c1OCC(=O)NCCN(C)C)Cc1cc(C(C)(C)C)cc(c1OCC(=O)NCCN(C)C)Cc1cc(C(C)(C)C)cc(c1OCC(=O)NCCN(C)C)C2" : -1.10
